- SUBJECT_OF_TEST: T1, Cynomolgus monkey DLL3 on HEK293 cells (HEK293-cyno DLL3) (Cynomolgus monkey, UniProt Q9NYJ7 27-618 (human entry))
- T1 chain: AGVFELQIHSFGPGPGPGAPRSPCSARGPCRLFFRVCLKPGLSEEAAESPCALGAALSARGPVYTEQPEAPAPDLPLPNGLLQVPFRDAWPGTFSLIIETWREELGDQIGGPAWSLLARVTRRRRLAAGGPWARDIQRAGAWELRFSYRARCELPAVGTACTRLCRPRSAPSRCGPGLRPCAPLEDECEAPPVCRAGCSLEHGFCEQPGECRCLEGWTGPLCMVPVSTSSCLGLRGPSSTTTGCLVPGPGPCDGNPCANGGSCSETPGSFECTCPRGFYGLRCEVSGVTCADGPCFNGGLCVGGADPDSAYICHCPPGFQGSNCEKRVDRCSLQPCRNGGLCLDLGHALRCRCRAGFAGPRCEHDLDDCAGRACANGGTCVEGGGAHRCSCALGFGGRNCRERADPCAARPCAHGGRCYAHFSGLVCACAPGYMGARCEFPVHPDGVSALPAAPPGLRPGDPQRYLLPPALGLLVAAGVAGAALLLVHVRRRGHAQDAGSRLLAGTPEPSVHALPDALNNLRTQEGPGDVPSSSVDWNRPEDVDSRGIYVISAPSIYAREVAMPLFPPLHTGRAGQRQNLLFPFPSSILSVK
- PROCEDURE_TEXT: flow cytometry, HEK293-cyno DLL3 cells
Kindly supply the reported pEC50 values for the records listed here.
By convention, pEC50 is the negative base-10 log of a molar concentration.

Quick one: pEC50 of DLL3-12 camelid-derived anti-DLL3 chimeric antibody (antibody, human IgG1, V domains shown) VH: QVQLVESGGGLVQPGESLRLSCAGSGFAFSSYDMHWVRQAPGKDFEWVSSISRDGRGPRYADFVKGRFTISKDNGRNMLYLQLNSLEIEDTAMYYCSKGYPIMGGTTQGTQVTVSS ?
8.86

Quick one: pEC50 of hDLL3-122 camelid-derived humanized anti-DLL3 antibody (antibody, V domains shown) VH: EVQLVESGGGLVQPGGSLRLSCAASGDTYRSYCMGWFRQAPGKEREGVADIVSDGSTSYADSVKGRFTISRDNSKNTLYLQMNSLRAEDTAVYYCAVDRGGSGGYCYTGRYDYWGQGTLVTVSS ?
9.00

Quick one: pEC50 of hDLL3-276 camelid-derived humanized anti-DLL3 antibody (antibody, V domains shown) VH: QVQLVESGGGVVQPGGSLRLSCAASGSTASTTYMGWFRQAPGKGREGVAIIYTARDNPWYADSVKGRFTISRDNSKNTLYLQMNSLRAEDTAVYYCAATLANPTRTAWGQGTLVTVSS ?
9.00

Quick one: pEC50 of hDLL3-3-1 camelid-derived humanized anti-DLL3 antibody (antibody, human IgG1, V domains shown) VH: EVQLVESGGGLVQPGGSLRLSCAASTYTISSGYMGWFRQAPGKEREGVAAIYIGGSTTLYADSVKGRFTISRDNSKNTLYLQMNSLRAEDTAVYYCAAQLRPNSAYHPLDGRKYNYWGQGTLVTVSS ?
9.66

FYI, the data here is from patent US20240239878A1.
